- Test system: adult brown dog ticks (Rhipicephalus sanguineus)
- test: Rhipicephalus sanguineus in-vitro contact test, adult brown dog ticks
- Format: in vivo
- conditions used: 5 μg/cm^2 (=500 g/ha), after 48 hours, read-out: efficacy (ticks dead or moribund)
In this section we review reported pest or weed control at 5 µg/cm2, 5 µg/cm2 values for a set of molecules.
Please give a number only; it is taken to be in %.

**Q:** Returns the measured pest or weed control at 5 µg/cm2, 5 µg/cm2 for the input molecule. Input: "Cc1nc([C@H](C)NC(=O)c2cc(OC3CCOCC3)cc(C(F)(F)F)c2)n(-c2ccc(C#N)cn2)n1"
**A:** 80

Where do these numbers come from? They come from patent US12653190B2.
